Below, each of the molecules is paired with its reported pIC50 value.
System: Vero
method_notes: In vitro antiviral and anticellular activity was evaluated against vero cells in tissue culture
Assay type: functional
cond: Chlorocebus sabaeus, read-out: ID50 (the source's name)
Kindly note that pIC50 refers to -log10 of the concentration in mol/L and answer with the value alone.

For the record Nc1nc2c(ncn2COC(CO)CO)c(=O)[nH]1 [GANCICLOVIR] , what value of pIC50 is listed for Vero?
3.30

What do you have for Nc1nc2c(ncn2COCCO)c(=O)[nH]1 [ACYCLOVIR] ?
2.96

Same thing, different molecule: Nc1nc(O)c2ncn(CSC(CO)CO)c2n1
3.05

---

Test system: Human betaherpesvirus 5
method_notes: In vitro antiviral and anticellular activity was evaluated against human cytomegalovirus (HCMV AD 169) in […].
Assay type: functional
cond: read-out: ID50 (the source's name)
measure_name: IC50 (µM)
# number only, unit µM dropped from output

Some compounds with recorded IC50:
Suppose we examine the compound Nc1nc2c(ncn2COCCO)c(=O)[nH]1 [ACYCLOVIR] ; what IC50 value has been reported?
100

Now the same for Nc1nc2c(ncn2COC(CO)CO)c(=O)[nH]1 [GANCICLOVIR]
6

Next up:
// query IC50 value for entry Nc1nc(O)c2ncn(CSC(CO)CO)c2n1
80

Measured values drawn from ChEMBL document CHEMBL1123033 for this set.
